Measured values drawn from patent US20250171423A1 for this set.

Overview of recorded IC50 for various compounds
Experimental System: Human complement C1s enzyme (Homo sapiens)
Construct: purified from human serum, Complement Technology, Inc; purchased Complement Technology, Inc; host or cells: human serum
Sequence (P09871 438-688 limits assumed): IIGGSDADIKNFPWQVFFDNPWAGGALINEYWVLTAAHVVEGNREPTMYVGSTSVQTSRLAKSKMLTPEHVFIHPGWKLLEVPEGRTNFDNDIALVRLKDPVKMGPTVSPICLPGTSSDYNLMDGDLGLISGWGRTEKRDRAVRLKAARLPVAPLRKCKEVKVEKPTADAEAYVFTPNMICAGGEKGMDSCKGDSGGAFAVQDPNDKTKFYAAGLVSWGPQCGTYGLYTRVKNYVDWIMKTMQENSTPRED
Sequence (P09871 16-437 partner limits assumed): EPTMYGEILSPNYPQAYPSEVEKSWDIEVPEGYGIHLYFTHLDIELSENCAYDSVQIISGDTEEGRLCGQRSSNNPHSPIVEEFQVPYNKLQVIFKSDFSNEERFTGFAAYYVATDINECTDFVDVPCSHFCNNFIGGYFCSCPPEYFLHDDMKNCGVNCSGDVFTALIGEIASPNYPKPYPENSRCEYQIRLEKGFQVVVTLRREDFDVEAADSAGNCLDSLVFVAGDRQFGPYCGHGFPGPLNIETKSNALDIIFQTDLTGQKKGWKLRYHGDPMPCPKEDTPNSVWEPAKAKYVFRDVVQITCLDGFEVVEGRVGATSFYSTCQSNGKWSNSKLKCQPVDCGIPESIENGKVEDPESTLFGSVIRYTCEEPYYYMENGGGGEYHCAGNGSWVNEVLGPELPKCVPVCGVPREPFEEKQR
Assay Method Text: Human C1s Enzyme Assay
Format: biochemical
Run Parameters: human C1s 1.16 nM, 5 min preincubation, substrate Z-L-Lys-SBzl 100 μM, A405; read-out: C1s Protease Activity
Recorded Endpoint: IC50

compound="N=C(N)c1csc(CNC(=O)[C@@H]2CC3(CN2C(=O)CNC(=O)CCCOc2ccnc(F)c2)OCCO3)c1 [Compound 206]" recorded_endpoint=IC50 value_observed="< 100 nM"
compound="N=C(N)c1csc([C@@H](NC(=O)[C@@H]2CC3(CN2C(=O)CNC(=O)CCCOc2ccccc2)OCCO3)c2ccccc2)c1 [Compound 217]" recorded_endpoint=IC50 value_observed="> 1000 nM"
compound="C[C@@]12C[C@@H]1N(C(=O)CNC(=O)COCCOCCNC(=O)COCCOCCNC(=O)CC[C@H](NC(=O)CCCCCCCCCCCCCCCCC(=O)O)C(=O)O)[C@H](C(=O)NCc1cc(C(=N)N)cs1)C2 [Compound 100]" recorded_endpoint=IC50 value_observed="> 1000 nM"
